assay: Rat IV/PO PK study, Method A; type: in vivo, male Sprague Dawley (SD) rats; conditions: PO, 5 mpk, free form
AUC (ng · h/mL)_free form/dose for assorted compounds

Recorded AUC (ng · h/mL)_free form/dose, per entry:
[[record]]
compound = "CN=S(=O)(c1ccc(-n2ccn(-c3c4c(nn3-c3cc(C)c(F)c(C)c3)CCN(C(=O)c3cc5cc([C@H]6CCOC(C)(C)C6)ccc5n3[C@@]3(c5noc(=O)[nH]5)C[C@@H]3C)[C@H]4C)c2=O)c(F)c1C)C1CC1 (single isomer, unassigned) [Compound 195]"
attribute_measured = "AUC (ng · h/mL)_free form/dose"
result = "9,545/5 mpk ng · h/mL"

[[record]]
compound = "CN=S(=O)(c1ccc(-n2ccn(-c3c4c(nn3-c3cc(C)c(F)c(C)c3)CCN(C(=O)c3cc5cc([C@H]6CCOC(C)(C)C6)ccc5n3[C@@]3(c5noc(=O)[nH]5)C[C@@H]3C)[C@H]4C)c2=O)c(F)c1NC)C1CC1 (single isomer, unassigned) [Compound 238]"
attribute_measured = "AUC (ng · h/mL)_free form/dose"
result = "4,997/5 mpk ng · h/mL"


May I ask what AUC (ng · h/mL)_free form/dose has been recorded for CCS(=O)(=NC)c1ccc(-n2ccn(-c3c4c(nn3-c3cc(C)c(F)c(C)c3)CCN(C(=O)c3cc5cc(C6CCOCC6)ccc5n3[C@@]3(c5noc(=O)[nH]5)C[C@@H]3C)[C@H]4C)c2=O)c(F)c1 (single isomer, unassigned) [Compound 149] ?
4,276/5 mpk ng · h/mL

---

target: UniProtKB P43220; test: GLP-1R agonist cAMP stimulation assay (HEK293/GLP1R/CRE-LUC cells, Cisbio cAMP dynamic 2 kit); format: cell-based; conditions: Table 4
Sequence (P43220 24-463, species assumed): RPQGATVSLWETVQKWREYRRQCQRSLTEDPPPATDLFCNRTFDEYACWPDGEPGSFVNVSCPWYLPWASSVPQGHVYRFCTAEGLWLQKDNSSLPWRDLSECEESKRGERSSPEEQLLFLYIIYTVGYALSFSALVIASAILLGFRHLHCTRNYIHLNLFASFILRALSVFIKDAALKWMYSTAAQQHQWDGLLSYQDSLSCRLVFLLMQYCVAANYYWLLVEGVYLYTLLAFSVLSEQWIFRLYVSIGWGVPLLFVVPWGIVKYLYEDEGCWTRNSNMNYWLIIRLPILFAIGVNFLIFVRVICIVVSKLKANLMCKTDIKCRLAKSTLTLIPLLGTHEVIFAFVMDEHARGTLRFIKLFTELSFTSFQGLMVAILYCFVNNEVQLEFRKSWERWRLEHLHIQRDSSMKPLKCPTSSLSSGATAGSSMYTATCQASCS
attribute-measured: EC50 (nM)

[[record]]
compound = "CCS(=O)(=NC)c1ccc(-n2ccn(-c3c4c(nn3-c3cc(C)c(F)c(C)c3)CCN(C(=O)c3cc5cc(C6CCOCC6)ccc5n3[C@@]3(c5noc(=O)[nH]5)C[C@@H]3C)[C@H]4C)c2=O)cc1 (single isomer, unassigned) [Compound 144]"
attribute_measured = "EC50"
number = 0.017

[[record]]
compound = "CN=S(C)(=O)c1ccc(-n2ccn(-c3c4c(nn3-c3cc(C)c(F)c(C)c3)CCN(C(=O)c3cc5cc(C6CCOCC6)ccc5n3[C@@]3(c5noc(=O)[nH]5)C[C@@H]3C)[C@H]4C)c2=O)cc1 (single isomer, unassigned) [Compound 121]"
attribute_measured = "EC50"
number = 0.015


---

assay: Caco-2 permeability / efflux study; format: in vitro ADME; details: human, Caco-2, pH 7.4, 10 μM, 37° C., pH 7.4, 0.5% BSA, read-out: Caco-2 Perm
attribute-measured: Papp at 2 h, 10 μM (×10⁻⁶ cm/s)

[[record]]
molecule = "CN=S(=O)(c1ccc(-n2ccn(-c3c4c(nn3-c3cc(C)c(F)c(C)c3)CCN(C(=O)c3cc5cc([C@H]6CCOC(C)(C)C6)ccc5n3[C@@]3(c5noc(=O)[nH]5)C[C@@H]3C)[C@H]4C)c2=O)c(F)c1)C1CC1 (single isomer, unassigned)"
attribute_measured = "Papp at 2 h, 10 μM"
number = 0.61

[[record]]
molecule = "CN=S(C)(=O)c1ccc(-n2ccn(-c3c4c(nn3-c3cc(C)c(F)c(C)c3)CCN(C(=O)c3cc5cc(C6CCOCC6)ccc5n3[C@@]3(c5noc(=O)[nH]5)C[C@@H]3C)[C@H]4C)c2=O)cc1 (single isomer, unassigned)"
attribute_measured = "Papp at 2 h, 10 μM"
number = 0.1

[[record]]
molecule = "Cc1cc(-n2nc3c(c2-n2ccn(-c4ccc(N5CCCS5(=O)=O)cc4)c2=O)[C@H](C)N(C(=O)c2cc4cc(C5CCOCC5)ccc4n2[C@@]2(c4noc(=O)[nH]4)C[C@@H]2C)CC3)cc(C)c1F [Compound C-4, reference compound]"
attribute_measured = "Papp at 2 h, 10 μM"
number = 0.18

[[record]]
molecule = "CCS(=O)(=NC)c1ccc(-n2ccn(-c3c4c(nn3-c3cc(C)c(F)c(C)c3)CCN(C(=O)c3cc5cc(C6CCOCC6)ccc5n3[C@@]3(c5noc(=O)[nH]5)C[C@@H]3C)[C@H]4C)c2=O)c(Cl)c1 (single isomer, unassigned)"
attribute_measured = "Papp at 2 h, 10 μM"
number = 0.3

[[record]]
molecule = "Cc1cc(-n2nc3c(c2-n2ccn(-c4ccc(S(=N)(=O)C5CC5)cc4F)c2=O)[C@H](C)N(C(=O)c2cc4cc([C@H]5CCOC(C)(C)C5)ccc4n2[C@@]2(c4noc(=O)[nH]4)C[C@@H]2C)CC3)cc(C)c1F (single isomer, unassigned)"
attribute_measured = "Papp at 2 h, 10 μM"
number = 0.24


(A) CN=S(=O)(c1ccc(-n2ccn(-c3c4c(nn3-c3cc(C)c(F)c(C)c3)CCN(C(=O)c3cc5cc([C@H]6CCOC(C)(C)C6)ccc5n3[C@@]3(c5noc(=O)[nH]5)C[C@@H]3C)[C@H]4C)c2=O)c(F)c1Cl)C1CC1 (single isomer, unassigned)
(B) CN=S(=O)(c1ccc(-n2ccn(-c3c4c(nn3-c3cc(C)c(F)c(C)c3)CCN(C(=O)c3cc5cc([C@H]6CCOC(C)(C)C6)ccc5n3[C@@]3(c5noc(=O)[nH]5)C[C@@H]3C)[C@H]4C)c2=O)c(F)c1C)C1CC1 (single isomer, unassigned)
(C) CN=S(=O)(c1ccc(-n2ccn(-c3c4c(nn3-c3cc(C)c(F)c(C)c3)CCN(C(=O)c3cc5cc([C@H]6CCOC(C)(C)C6)ccc5n3[C@@]3(c5noc(=O)[nH]5)C[C@@H]3C)[C@H]4C)c2=O)cc1NC)C1CC1 (single isomer, unassigned)
(D) CCS(=O)(=NC)c1ccc(-n2ccn(-c3c4c(nn3-c3cc(C)c(F)c(C)c3)CCN(C(=O)c3cc5cc([C@H]6CCOC(C)(C)C6)ccc5n3[C@@]3(c5noc(=O)[nH]5)C[C@@H]3C)[C@H]4C)c2=O)c(F)c1 (single isomer, unassigned)
Arrange the 4 entries by Papp at 2 h, 10 μM so the values rise. Reply with the labels, ordered as the question asks.
C, B, A, D

(I) CCS(=O)(=NC)c1ccc(-n2ccn(-c3c4c(nn3-c3cc(C)c(F)c(C)c3)CCN(C(=O)c3cc5cc(C6CCOCC6)ccc5n3[C@@]3(c5noc(=O)[nH]5)C[C@@H]3C)[C@H]4C)c2=O)cc1 (single isomer, unassigned)
(II) CN=S(=O)(c1ccc(-n2ccn(-c3c4c(nn3-c3cc(C)c(F)c(C)c3)CCN(C(=O)c3cc5cc([C@H]6CCOC(C)(C)C6)ccc5n3[C@@]3(c5noc(=O)[nH]5)C[C@@H]3C)[C@H]4C)c2=O)c(F)c1NC)C1CC1 (single isomer, unassigned)
Which has the smaller recorded Papp at 2 h, 10 μM, I or II ? Lab log: write the label of the selected item as the result.
II
(II: 0.19 ×10⁻⁶ cm/s, I: 0.36 ×10⁻⁶ cm/s)

---

assay: FaSSIF solubility; type: physicochemical; details: FaSSIF buffer, 25 °C, fassif, thermodynamic from solid
attribute-measured: solubility at 4 h (µM)

(A) CN=S(=O)(c1ccc(-n2ccn(-c3c4c(nn3-c3cc(C)c(F)c(C)c3)CCN(C(=O)c3cc5cc([C@H]6CCOC(C)(C)C6)ccc5n3[C@@]3(c5noc(=O)[nH]5)C[C@@H]3C)[C@H]4C)c2=O)c(F)c1)C1CC1 (single isomer, unassigned)
(B) CN=S(=O)(c1ccc(-n2ccn(-c3c4c(nn3-c3cc(C)c(F)c(C)c3)CCN(C(=O)c3cc5cc(C6CCOCC6)ccc5n3[C@@]3(c5noc(=O)[nH]5)C[C@@H]3C)[C@H]4C)c2=O)c(F)c1)C1CC1 (single isomer, unassigned)
Consider A and B . Which of these has its solubility at 4 h at a higher number? Respond with the label that goes with your answer.
A
(A: 30 µM, B: 4.05 µM)

---

experiment: Rat PO PK study, Method B; format: in vivo, male Sprague Dawley (SD) rats; conditions: male, Sprague Dawley, plasma, 10 mg/kg, 10% solutol HS 15
attribute-measured: Cmax (ng/mL)
Report as a plain number; the unit ng/mL is understood.

Query: Cmax; subject: Cc1cc(-n2nc3c(c2-n2ccn(-c4ccc5c(cnn5C)c4F)c2=O)[C@H](C)N(C(=O)c2cc4cc([C@H]5CCOC(C)(C)C5)ccc4n2[C@@]2(c4noc(=O)[nH]4)C[C@@H]2C)CC3)cc(C)c1F [Compound C-5, reference compound]
1250

---

test: Rat IV/PO PK study, Method A; assay type: in vivo, male Sprague Dawley (SD) rats; settings: male, Sprague Dawley, plasma, PO vs IV, Method A, read-out: Bioavailablility (% F)
attribute-measured: bioavailability (%)

Here are 3 compounds together with their reported answers.
[[record]]
compound = "CCS(=O)(=NC)c1ccc(-n2ccn(-c3c4c(nn3-c3cc(C)c(F)c(C)c3)CCN(C(=O)c3cc5cc([C@H]6CCOC(C)(C)C6)ccc5n3[C@@]3(c5noc(=O)[nH]5)C[C@@H]3C)[C@H]4C)c2=O)c(F)c1 (single isomer, unassigned)"
u = "%"
number = 29.4

[[record]]
compound = "CN=S(=O)(c1ccc(-n2ccn(-c3c4c(nn3-c3cc(C)c(F)c(C)c3)CCN(C(=O)c3cc5cc([C@H]6CCOC(C)(C)C6)ccc5n3[C@@]3(c5noc(=O)[nH]5)C[C@@H]3C)[C@H]4C)c2=O)c(F)c1)C1CC1 (single isomer, unassigned)"
u = "%"
number = 28

[[record]]
compound = "CN=S(=O)(c1ccc(-n2ccn(-c3c4c(nn3-c3cc(C)c(F)c(C)c3)CCN(C(=O)c3cc5cc([C@H]6CCOC(C)(C)C6)ccc5n3[C@@]3(c5noc(=O)[nH]5)C[C@@H]3C)[C@H]4C)c2=O)c(F)c1NC)C1CC1 (single isomer, unassigned)"
u = "%"
number = 25.5


(A) Cc1cc(-n2nc3c(c2-n2ccn(-c4ccc(S(=N)(=O)C5CC5)cc4F)c2=O)[C@H](C)N(C(=O)c2cc4cc([C@H]5CCOC(C)(C)C5)ccc4n2[C@@]2(c4noc(=O)[nH]4)C[C@@H]2C)CC3)cc(C)c1F (single isomer, unassigned)
(B) CN=S(=O)(c1ccc(-n2ccn(-c3c4c(nn3-c3cc(C)c(F)c(C)c3)CCN(C(=O)c3cc5cc([C@H]6CCOC(C)(C)C6)ccc5n3[C@@]3(c5noc(=O)[nH]5)C[C@@H]3C)[C@H]4C)c2=O)c(F)c1C)C1CC1 (single isomer, unassigned)
(C) Cc1cc(-n2nc3c(c2-n2ccn(-c4ccc5c(cnn5C)c4F)c2=O)[C@H](C)N(C(=O)c2cc4cc([C@H]5CCOC(C)(C)C5)ccn4c2C2(c4noc(=O)[nH]4)CC2)CC3)cc(C2CC2)c1F [Compound C-6, reference compound]
Ascending by bioavailability, please. Hello, could you send the labels back in the order asked? Thank you.
B, A, C
(B: 14%, A: 30%, C: 47%)
